system: Listeria innocua; assay: Antibacterial activity against Listeria innocua incubated for 16 to 18 hrs by broth microdilution method; type: functional
Where a SMILES comes first, the peptide text is derived from it. Bridges are numbered along the chain shown (N, C = ends). [ ]: non-standard residue; d: D form. The star is where a group is joined. Phe(3,5-F2) = N[C@@H](Cc1cc(F)cc(F)c1)C(=O)O; Pro(4R-Me) = C[C@H]1CN[C@H](C(=O)O)C1; Heptenoyl(2E) = CCCC/C=C/C(=O)*; Pip = O=C(O)[C@@H]1CCCCN1; Dap = NC[C@H](N)C(=O)O
PARAMETER_MEASURED: MIC

INSERT INTO results (compound, endpoint_result) VALUES
  ('CCCC/C=C/C(=O)N[C@@H](Cc1cc(F)cc(F)c1)C(=O)N[C@H]1CNC(=O)[C@@H]2C[C@@H](C)CN2C(=O)[C@H](C)NC(=O)[C@@H]2CCCCN2C(=O)[C@@H]2CCCN2C1=O ({Heptenoyl(2E)}-[Phe(3,5-F2)][Dap]P[Pip]A[Pro(4R-Me)]; lactam 2-C)', '≤ 0.0625 µg/mL'),
  ('C[C@@H]1C[C@H]2C(=O)O[C@@H](C)[C@H](NC(=O)[C@H](Cc3cc(F)cc(F)c3)NC(=O)/C=C/CC3CCCCC3)C(=O)N3CCC[C@H]3C(=O)N3CCCC[C@H]3C(=O)N[C@@H](C)C(=O)N2C1', '≤ 0.0625 µg/mL');

---

Form field: log10(MIC) (one value per entry).
tested on: Staphylococcus aureus; assay: Antibacterial activity against Staphylococcus aureus ATCC 29213 incubated for 16 to 18 hrs by broth microdilution method; type: functional
Where a SMILES comes first, the peptide text is derived from it. Bridges are numbered along the chain shown (N, C = ends). [ ]: non-standard residue; d: D form. The star is where a group is joined. Phe(3,5-F2) = N[C@@H](Cc1cc(F)cc(F)c1)C(=O)O; Pip(4S-Me) = C[C@H]1CCN[C@H](C(=O)O)C1; Pro(4R-Me) = C[C@H]1CN[C@H](C(=O)O)C1; Tiq1c(1S) = O=C(O)[C@H]1NCCc2ccccc21; Bta = N[C@@H](Cc1csc2ccccc12)C(=O)O; Heptenoyl(2E) = CCCC/C=C/C(=O)*; Cha = N[C@@H](CC1CCCCC1)C(=O)O; aThr = C[C@H](O)[C@H](N)C(=O)O; Pip = O=C(O)[C@@H]1CCCCN1; NMeA = CN[C@@H](C)C(=O)O; X1 = CCC/C=C/C=C/C(=O)*; Abu = CC[C@H](N)C(=O)O; Dap = NC[C@H](N)C(=O)O
PARAMETER_MEASURED: log10(MIC) (log10 of the value in µg/mL)

INSERT INTO assay_data (compound, endpoint_result) VALUES
  ('CCC/C=C/C=C/C(=O)N[C@@H](Cc1cc(F)cc(F)c1)C(=O)N[C@@H]1C(=O)N2CCC[C@H]2C(=O)N2CCCC[C@H]2C(=O)N[C@@H](C)C(=O)N2C[C@H](C)C[C@H]2C(=O)O[C@H]1C (X1-[Phe(3,5-F2)][aThr]P[Pip]A[Pro(4R-Me)]; ester 2-C)', -2.72),
  ('CCCC/C=C/C(=O)N[C@@H](Cc1cc(F)cc(F)c1)C(=O)N[C@H]1COC(=O)[C@@H]2C[C@@H](C)CN2C(=O)[C@H](CC)NC(=O)[C@@H]2CCCN2C(=O)[C@@H]2CCCN2C1=O ({Heptenoyl(2E)}-[Phe(3,5-F2)]SPP[Abu][Pro(4R-Me)]; ester 2-C)', 0.30),
  ('CCCC/C=C/C(=O)N[C@@H](Cc1cc(F)cc(F)c1)C(=O)N[C@H]1COC(=O)[C@@H]2C[C@@H](C)CN2C(=O)[C@H](C)NC(=O)[C@@H]2C[C@@H](C)CCN2C(=O)[C@@H]2CCCN2C1=O ({Heptenoyl(2E)}-[Phe(3,5-F2)]SP[Pip(4S-Me)]A[Pro(4R-Me)]; ester 2-C)', -1.81),
  ('CCCC/C=C/C(=O)N[C@@H](Cc1csc2ccccc12)C(=O)N[C@H]1COC(=O)[C@@H]2C[C@@H](C)CN2C(=O)[C@H](CC)NC(=O)[C@@H]2CCCCN2C(=O)[C@@H]2CCCN2C1=O ({Heptenoyl(2E)}-[Bta]SP[Pip][Abu][Pro(4R-Me)]; ester 2-C)', 0.90),
  ('CCCC/C=C/C(=O)N[C@@H](Cc1cc(F)cc(F)c1)C(=O)N[C@@H]1C(=O)N2CCC[C@H]2C(=O)N2CCCC[C@H]2C(=O)N[C@@H](C)C(=O)N2CCC[C@H]2C(=O)O[C@H]1C', -2.11),
  ('C[C@@H]1C[C@H]2C(=O)O[C@@H](C)[C@H](NC(=O)[C@H](Cc3cc(F)cc(F)c3)NC(=O)/C=C/CC3CC3)C(=O)N3CCC[C@H]3C(=O)N3CCCC[C@H]3C(=O)N[C@@H](C)C(=O)N2C1', -2.11),
  ('C[C@@H]1C[C@H]2C(=O)O[C@@H](C)[C@H](NC(=O)[C@H](Cc3cc(F)cc(F)c3)NC(=O)/C=C/CC3CCCCC3)C(=O)N3CCC[C@H]3C(=O)N3CCCC[C@H]3C(=O)N[C@@H](C)C(=O)N2C1', -2.11),
  ('CCCC/C=C/C(=O)N[C@@H](Cc1cc(F)cc(F)c1)C(=O)N[C@@H]1C(=O)N2CCC[C@H]2C(=O)N2CCCC[C@H]2C(=O)N[C@@H](C)C(=O)N2C[C@H](C)C[C@H]2C(=O)O[C@H]1C', -2.41),
  ('C[C@@H]1C[C@H]2C(=O)O[C@@H](C)[C@H](NC(=O)[C@H](Cc3cc(F)cc(F)c3)NC(=O)/C=C/CCCCC(=O)O)C(=O)N3CCC[C@H]3C(=O)N3CCCC[C@H]3C(=O)N[C@@H](C)C(=O)N2C1', 1.51),
  ('CCCC/C=C/C(=O)N[C@@H](CC1CCCCC1)C(=O)N[C@H]1COC(=O)[C@@H]2C[C@@H](C)CN2C(=O)[C@H](CC)NC(=O)[C@@H]2CCCCN2C(=O)[C@@H]2CCCN2C1=O ({Heptenoyl(2E)}-[Cha]SP[Pip][Abu][Pro(4R-Me)]; ester 2-C)', 0.00),
  ('CCCC/C=C/C(=O)N[C@@H](Cc1cc(F)cc(F)c1)C(=O)N[C@H]1CNC(=O)[C@@H]2C[C@@H](C)CN2C(=O)[C@H](C)NC(=O)[C@@H]2CCCCN2C(=O)[C@@H]2CCCN2C1=O ({Heptenoyl(2E)}-[Phe(3,5-F2)][Dap]P[Pip]A[Pro(4R-Me)]; lactam 2-C)', 0.60),
  ('CCC/C=C/C=C/C(=O)N[C@@H](Cc1ccccc1)C(=O)N[C@H]1COC(=O)[C@@H]2C[C@@H](C)CN2C(=O)[C@H](C)NC(=O)[C@H](C)N(C)C(=O)[C@@H]2CCCN2C1=O (X1-FSP[NMeA]A[Pro(4R-Me)]; ester 2-C)', -0.30),
  ('CCCC/C=C/C(=O)N[C@@H](Cc1cc(F)cc(F)c1)C(=O)N[C@@H]1C(=O)N2CCC[C@H]2C(=O)N2CC[C@H](C)C[C@H]2C(=O)N[C@@H](C)C(=O)N2CCC[C@H]2C(=O)O[C@H]1C ({Heptenoyl(2E)}-[Phe(3,5-F2)][aThr]P[Pip(4S-Me)]AP; ester 2-C)', -2.11),
  ('CCCC/C=C/C(=O)N[C@@H](Cc1cc(F)cc(F)c1)C(=O)N[C@@H]1C(=O)N2CCC[C@H]2C(=O)N2CC[C@H](C)C[C@H]2C(=O)N[C@@H](C)C(=O)N2C[C@H](C)C[C@H]2C(=O)O[C@H]1C', -2.11),
  ('CCCC/C=C/C(=O)N[C@@H](Cc1cc(F)cc(F)c1)C(=O)N[C@H]1COC(=O)[C@@H]2C[C@@H](C)CN2C(=O)[C@H](CC)NC(=O)[C@@H]2c3ccccc3CCN2C(=O)[C@@H]2CCCN2C1=O ({Heptenoyl(2E)}-[Phe(3,5-F2)]SP[Tiq1c(1S)][Abu][Pro(4R-Me)]; ester 2-C)', 0.60);

These measurements were taken from ChEMBL document CHEMBL3763039.
